Subject of test: adenosine 2a receptor (Homo sapiens, UniProt P29274)
Sequence (P29274 whole entry): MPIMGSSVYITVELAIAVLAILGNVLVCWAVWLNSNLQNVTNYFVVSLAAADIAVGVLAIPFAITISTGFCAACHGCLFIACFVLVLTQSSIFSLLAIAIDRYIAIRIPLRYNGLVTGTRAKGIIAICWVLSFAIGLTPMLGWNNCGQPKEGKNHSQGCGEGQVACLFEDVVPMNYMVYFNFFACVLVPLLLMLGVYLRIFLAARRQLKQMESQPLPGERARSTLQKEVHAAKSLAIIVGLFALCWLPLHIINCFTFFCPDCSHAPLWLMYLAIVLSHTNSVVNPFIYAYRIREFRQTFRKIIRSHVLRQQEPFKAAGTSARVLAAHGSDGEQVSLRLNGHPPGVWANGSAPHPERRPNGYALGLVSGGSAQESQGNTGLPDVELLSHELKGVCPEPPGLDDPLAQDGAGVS
Test name: Agonist activity against adenosine 2a receptor (CHO cells, cAMP/SPAP reporter)
Format: cell-based
Experimental setup: CHO cells transfected with human receptor; basal cAMP via SPAP; mean of all the versions tested
Consider the cut-off 0.4. If the recorded A2a EC50 as a ratio of that of NECA is strictly smaller, the label is Y; if not, the label is N.

# Molecule, Label value
records = [
    ("CCn1nnc(C2OC(n3cnc4c(N)nc(NCCc5ccc(S(N)(=O)=O)cc5)nc43)C(O)C2O)n1 (stereo not shown)", "N"),
    ("CCn1nnc([C@H]2O[C@@H](n3cnc4c(N)nc(NCCc5ccc(O)cc5)nc43)[C@H](O)[C@@H]2O)n1.O=CO", "Y"),
    ("CCC(CC)Nc1nc(NCCN2CCOCC2)nc2c1ncn2C1OC(c2nnn(C)n2)C(O)C1O.O=CO.O=CO (stereo not shown)", "N"),
]

Now take the following molecule into account.
input: Please let me know if `CCn1nnc([C@H]2O[C@@H](n3cnc4c(NCC(c5ccccc5)c5ccccc5)nc(NC5CCS(=O)(=O)CC5)nc43)[C@H](O)[C@@H]2O)n1.O=C(O)C(F)(F)F` shows A2a EC50 as a ratio of that of NECA below 0.4.
output: Y
